Reported values of LogP for individual entries
# Procedure Text: Log P by HPLC on reversed phase columns (EEC directive 79/831 Annex V.A8)
# Type: physicochemical

| Compound | LogP |
| --- | --- |
| COC(=O)C(NC(=O)c1cc(Cl)c(Cl)s1)C1CC1 (racemic) | 2.98^[a] |

[Q] LogP lookup needed for `CC(C)COC(=O)CNC(=O)c1sc(Cl)c(Cl)c1Cl` , thanks.
[A] 4.13^[a]

[Q] Follow-up item: `CCOC(=O)CNC(=O)c1scc(Cl)c1Cl`
[A] 2.40^[a]

[Q] Follow-up item: `CC(C)OC(=O)CNC(=O)c1sc(Cl)c(Cl)c1Cl`
[A] 3.67^[a]

[Q] Follow-up item: `CCOC(=O)[C@@H](CC(C)C)NC(=O)c1sc(Cl)c(Cl)c1Cl`
[A] 5.20^[a]

[Q] Follow-up item: `CC[C@H](C)[C@H](NC(=O)c1sc(Cl)c(Cl)c1Cl)C(=O)OC`
[A] 4.82^[a]

[Q] Follow-up item: CCOC(=O)C(Cc1ccc(O)cc1)NC(=O)c1sc(Cl)c(Cl)c1Cl (racemic)
[A] 3.63^[a]

[Q] Follow-up item: `CCOC(=O)CN(C)C(=O)c1sc(Cl)c(Cl)c1Cl`
[A] 3.21^[a]

[Q] Follow-up item: `CCOC(=O)[C@H](Cc1ccccc1)NC(=O)c1sc(Cl)c(Cl)c1Cl`
[A] 5.00^[a]

[Q] Follow-up item: `C=CCOC(=O)CNC(=O)c1sc(Cl)c(Cl)c1Cl`
[A] 3.64^[a]

====

# Procedure Text: Log P by HPLC on reversed phase columns (EEC directive 79/831 Annex V.A8)
# Assay type: physicochemical
# Reported Conditions: reversed phase HPLC columns, method [a]: LC-UV, acidic range, 0.1% formic acid in water and acetonitrile
Reported Property: chromatographic logP

Consider the worked cases shown below.
| Smiles String | chromatographic logP |
| --- | --- |
| CCOC(=O)C1(NC(=O)c2sc(Cl)c(Cl)c2N)CC1 | 2.77 |
| COC(=O)CNC(=O)c1sc(Cl)c(Cl)c1Cl | 2.83 |

I. O=C(O)CNC(=O)c1sc(Cl)c(Cl)c1Cl
II. CCOC(=O)C1(NC(=O)c2sc(Cl)c(Cl)c2Cl)CC1
[Q] Out of I and II , name the one with the higher chromatographic logP. To answer, give the label that identifies your chosen option.
[A] II
(II: 3.41, I: 2.16)

====

# Procedure Text: Log P by HPLC on reversed phase columns (EEC directive 79/831 Annex V.A8)
# Assay type: physicochemical
# Reported Conditions: method [a]: LC-UV, acidic range, 0.1% formic acid in water and acetonitrile
Reported Property: chromatographic logP
Note: the reply should be a number with no unit written.

[Q] chromatographic logP lookup needed for `Nc1c(C(=O)O)sc(Cl)c1Cl` , thanks.
[A] 2.05

====

# Procedure Text: Log P by HPLC on reversed phase columns (EEC directive 79/831 Annex V.A8)
# Format: physicochemical
Reported values of LogP for individual entries

Consider the worked cases shown below.
| Compound | LogP |
| --- | --- |
| CC[C@H](C)[C@H](NC(=O)c1sc(Cl)c(Cl)c1Cl)C(=O)O | 3.69^[a] |
| CCOC(=O)[C@@H](Cc1ccccc1)NC(=O)c1sc(Cl)c(Cl)c1Cl | 5.00^[a] |
| C#CCOC(=O)CNC(=O)c1sc(Cl)c(Cl)c1Cl | 3.13^[a] |
| COC(=O)C(NC(=O)c1sc(Cl)c(Cl)c1Cl)C1CC1 (racemic) | 3.81^[a] |
| CC/C=C\CCOC(=O)CNC(=O)c1sc(Cl)c(Cl)c1Cl | 4.69^[a] |
| COC(=O)C1(NC(=O)c2cc(Cl)c(Cl)s2)CC1 | 2.49^[a] |

[Q] LogP lookup needed for O=C(NC(Cc1ccccc1)C(=O)O)c1sc(Cl)c(Cl)c1Cl (racemic) , thanks.
[A] 3.56^[a]

[Q] Follow-up item: O=C(NC(C(=O)O)C1CC1)c1cc(Cl)c(Cl)s1 (racemic)
[A] 2.33^[a]

[Q] Follow-up item: `CCCOC(=O)CNC(=O)c1sc(Cl)c(Cl)c1Cl`
[A] 3.70^[a]

[Q] Follow-up item: `C[Si](C)(C)COC(=O)CNC(=O)c1sc(Cl)c(Cl)c1Cl`
[A] 4.81^[a]

Measured values drawn from patent US20230159486A1 for this set.
